Value source: paper PMC4578769

target: T. cruzi CYP51 (Tulahuen strain) (Trypanosoma cruzi)
Construct: ompA leader (N); host or cells: E. coli JM109 (membrane fraction, bactosomes)
Sequence (Q7Z1V1 whole entry): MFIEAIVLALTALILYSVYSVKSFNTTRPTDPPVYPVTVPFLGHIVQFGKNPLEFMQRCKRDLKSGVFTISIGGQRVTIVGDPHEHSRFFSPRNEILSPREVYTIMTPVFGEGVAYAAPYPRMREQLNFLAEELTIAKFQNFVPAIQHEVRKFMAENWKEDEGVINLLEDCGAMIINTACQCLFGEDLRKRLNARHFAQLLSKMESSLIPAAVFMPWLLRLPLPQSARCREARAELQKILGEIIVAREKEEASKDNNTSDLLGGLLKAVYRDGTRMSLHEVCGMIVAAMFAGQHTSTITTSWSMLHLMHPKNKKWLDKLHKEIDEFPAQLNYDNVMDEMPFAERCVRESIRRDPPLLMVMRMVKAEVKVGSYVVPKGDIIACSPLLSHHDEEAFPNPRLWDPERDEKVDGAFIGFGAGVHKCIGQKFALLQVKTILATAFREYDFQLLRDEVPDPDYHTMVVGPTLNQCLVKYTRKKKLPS
testDetails: biochemical
Format: biochemical
pIC50: −log10 of the molar value.
reportedMetric: pIC50

Example results:
| molecule | pIC50 |
| --- | --- |
| Clc1ccccc1CN1CCc2sccc2C1 | < 5.10 |
| Cc1nc2c([nH]1)c(=O)n(C)c(=O)n2Cc1ccco1 | < 5.10 |
| Cn1cc[nH]c1=S | < 5.10 |
| C=C[C@H]1C[N@@]2CC[C@H]1C[C@@H]2[C@@H](O)c1ccnc2ccc(OC)cc12 | < 5.10 |

Recorded result, Clc1ccc(COC(Cn2ccnc2)c2ccc(Cl)cc2Cl)c(Cl)c1 (centres unmarked) , pIC50: 7.24
